- Target under test: Full length human TNNI3K (hTNNI3K) (Homo sapiens, UniProt Q59H18)
- Construct: His-MBP-TEV-Full length human TNNI3K (hTNNI3K); His (N); MBP (N); TEV cleavage site (N); made in house; host or cells: baculovirus system (printed 'Baculokinase system')
- Sequence (Q59H18 1-835): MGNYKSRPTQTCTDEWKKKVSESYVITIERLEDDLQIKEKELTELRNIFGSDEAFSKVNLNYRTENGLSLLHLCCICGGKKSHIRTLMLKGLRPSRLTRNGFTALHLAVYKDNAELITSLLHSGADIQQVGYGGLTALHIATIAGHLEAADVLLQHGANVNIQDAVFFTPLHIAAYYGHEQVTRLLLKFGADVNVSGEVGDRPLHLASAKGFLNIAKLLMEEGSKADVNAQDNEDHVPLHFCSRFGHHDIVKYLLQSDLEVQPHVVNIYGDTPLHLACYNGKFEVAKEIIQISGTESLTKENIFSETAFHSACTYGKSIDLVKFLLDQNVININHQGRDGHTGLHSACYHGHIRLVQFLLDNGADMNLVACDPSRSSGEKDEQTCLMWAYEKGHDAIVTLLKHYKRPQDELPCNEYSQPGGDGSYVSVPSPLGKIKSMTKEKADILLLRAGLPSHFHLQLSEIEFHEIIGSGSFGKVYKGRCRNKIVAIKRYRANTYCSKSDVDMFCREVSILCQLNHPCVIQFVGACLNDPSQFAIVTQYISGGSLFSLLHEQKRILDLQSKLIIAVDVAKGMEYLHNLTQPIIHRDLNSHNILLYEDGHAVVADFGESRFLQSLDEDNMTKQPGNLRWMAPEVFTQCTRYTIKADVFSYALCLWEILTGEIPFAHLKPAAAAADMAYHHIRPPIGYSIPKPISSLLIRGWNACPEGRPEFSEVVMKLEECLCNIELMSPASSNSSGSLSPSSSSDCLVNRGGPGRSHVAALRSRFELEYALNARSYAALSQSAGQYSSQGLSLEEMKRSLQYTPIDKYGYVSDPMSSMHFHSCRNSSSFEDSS
- Test protocol: Fluorescent polarization assay of compound inhibition on hTNNI3K ATP binding (Biological Assay Method I)
- Measurement parameters: displacement of fluorescent ligand from hTNNI3K ATP binding pocket; mean of a minimum of 2 experiments; read-out: pXC50 (the source's name) (converted)
Counter-ions that a name gives are not always drawn.
Item-by-item account of IC50

Here's what some known entries look like.
CNS(=O)(=O)c1ccc(OCC(F)(F)F)c(Nc2ncnc3cc(OCCCN4CCOCC4)ccc23)c1 [Example 74, trifluoroacetate] ... 10 to 100 nM
CCN(C)c1ccc(S(=O)(=O)NC)cc1Nc1ncnc2cc(OC)c(OC)cc12 ... 10 to 100 nM

## Input Request: IC50, test system Full length human TNNI3K (hTNNI3K) (Homo sapiens, UniProt Q59H18), entry CCOc1cc(OC)cc2ncnc(Nc3cc(S(=O)(=O)NC)ccc3OC(F)(F)F)c12
## Output 10 to 100 nM

## Input Also CCOc1cc2c(Nc3cc(S(=O)(=O)NC)ccc3OCC(F)(F)F)ncnc2cc1OC [Example 42, hydrochloride] , if possible.
## Output 10 to 100 nM

## Input Same again, this time with CNc1ccc2c(Nc3cc(S(=O)(=O)NC)ccc3N(C)C)ncnc2c1
## Output 10 to 100 nM

## Input Another compound to check: CNS(=O)(=O)c1ccc(OC(F)(F)F)c(Nc2ncnc3cc(OC)cc(OC)c23)c1 [Example 54, hydrochloride]
## Output 1 to 10 nM

----------
Items are presented alongside their recorded IC50.
- Target under test: Full length human TNNI3K (hTNNI3K) (Homo sapiens)
- Construct: His-MBP-TEV-Full length human TNNI3K (hTNNI3K); His (N); MBP (N); TEV cleavage site (N); made in house; host or cells: baculovirus system (printed 'Baculokinase system')
- Test protocol: Fluorescent polarization assay of compound inhibition on hTNNI3K ATP binding (Biological Assay Method I)
- Measurement parameters: displacement of fluorescent ligand from hTNNI3K ATP binding pocket; mean of a minimum of 2 experiments; read-out: pXC50 (the source's name) (converted)
Where a name gives a salt, the structure may show the parent alone.

Consider the reported IC50 for these compounds:
CNS(=O)(=O)c1ccc(OCC(F)(F)F)c(Nc2ncnc3cc(OC)c(I)cc23)c1 ... 10 to 100 nM
CNS(=O)(=O)c1ccc(OC(C)C(F)(F)F)c(Nc2ncnc3cc(OC)c(OC)cc23)c1 (stereo not drawn) ... 10 to 100 nM
CNS(=O)(=O)c1ccc(N2CCC(F)(F)CC2)c(Nc2ncnc3cc(OC)c(OC)cc23)c1 [Example 14, trifluoroacetate] ... 10 to 100 nM
CNS(=O)(=O)c1ccc(Cl)c(Nc2ncnc3cc(OC)cc(OC)c23)c1 [Example 39, hydrochloride] ... 10 to 100 nM
CNS(=O)(=O)c1ccc(N(C)CC(F)(F)F)c(Nc2ncnc3cc(OC)c(OC)cc23)c1 [Example 35, trifluoroacetate] ... 1 to 10 nM
CNS(=O)(=O)c1ccc(N2CCC[C@@H]2C(F)(F)F)c(Nc2ncnc3ccc(Cl)cc23)c1 ... 10 to 100 nM

## Input Requested read-out: IC50. Entry: CNS(=O)(=O)c1ccc(N2CCC[C@@H]2C(F)(F)F)c(Nc2ncnc3cc(OC)c(OC)cc23)c1
## Output 1 to 10 nM

## Input Then CNS(=O)(=O)c1ccc(OCC(F)(F)F)c(Nc2ncnc3cc(OC)c(OC(C)C)cc23)c1 [Example 44, hydrochloride] ?
## Output 10 to 100 nM

## Input CNS(=O)(=O)c1ccc(OC(C)C(F)(F)F)c(Nc2ncnc3cc(OC)c(OC)c(OC)c23)c1 (stereo not drawn) [Example 62, trifluoroacetate] , same question.
## Output 1 to 10 nM
